Attribute: IC50
target: Acetylcholinesterase (Electrophorus electricus, UniProt O42275)
Sequence (O42275 whole entry): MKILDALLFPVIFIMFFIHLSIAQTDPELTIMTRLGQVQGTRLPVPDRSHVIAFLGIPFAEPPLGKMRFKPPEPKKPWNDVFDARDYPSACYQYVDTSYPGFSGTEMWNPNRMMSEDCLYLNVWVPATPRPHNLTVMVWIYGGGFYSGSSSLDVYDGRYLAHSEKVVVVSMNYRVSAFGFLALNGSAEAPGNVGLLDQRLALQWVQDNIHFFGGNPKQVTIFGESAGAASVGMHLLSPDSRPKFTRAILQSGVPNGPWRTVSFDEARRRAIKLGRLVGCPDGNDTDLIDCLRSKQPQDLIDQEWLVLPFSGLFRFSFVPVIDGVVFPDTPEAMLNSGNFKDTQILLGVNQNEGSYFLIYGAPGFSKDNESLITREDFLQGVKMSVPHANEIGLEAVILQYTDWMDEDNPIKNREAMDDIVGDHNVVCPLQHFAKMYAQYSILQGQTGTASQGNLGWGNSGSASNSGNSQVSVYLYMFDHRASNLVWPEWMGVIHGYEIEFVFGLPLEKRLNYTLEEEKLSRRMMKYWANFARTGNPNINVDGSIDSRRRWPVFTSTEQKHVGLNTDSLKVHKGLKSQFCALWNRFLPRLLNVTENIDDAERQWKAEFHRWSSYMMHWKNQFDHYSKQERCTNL
result type: IC50 (µM)

c1ccc2oc(-c3ccc(CN4CCOCC4)cc3)nc2c1 :: 20.1
c1ccc2oc(-c3ccc(CN4CCCCC4)cc3)nc2c1 :: 1.03

----------
biological target: Carboxylic ester hydrolase (Equus caballus)
Sequence (Q9N1N9 whole entry): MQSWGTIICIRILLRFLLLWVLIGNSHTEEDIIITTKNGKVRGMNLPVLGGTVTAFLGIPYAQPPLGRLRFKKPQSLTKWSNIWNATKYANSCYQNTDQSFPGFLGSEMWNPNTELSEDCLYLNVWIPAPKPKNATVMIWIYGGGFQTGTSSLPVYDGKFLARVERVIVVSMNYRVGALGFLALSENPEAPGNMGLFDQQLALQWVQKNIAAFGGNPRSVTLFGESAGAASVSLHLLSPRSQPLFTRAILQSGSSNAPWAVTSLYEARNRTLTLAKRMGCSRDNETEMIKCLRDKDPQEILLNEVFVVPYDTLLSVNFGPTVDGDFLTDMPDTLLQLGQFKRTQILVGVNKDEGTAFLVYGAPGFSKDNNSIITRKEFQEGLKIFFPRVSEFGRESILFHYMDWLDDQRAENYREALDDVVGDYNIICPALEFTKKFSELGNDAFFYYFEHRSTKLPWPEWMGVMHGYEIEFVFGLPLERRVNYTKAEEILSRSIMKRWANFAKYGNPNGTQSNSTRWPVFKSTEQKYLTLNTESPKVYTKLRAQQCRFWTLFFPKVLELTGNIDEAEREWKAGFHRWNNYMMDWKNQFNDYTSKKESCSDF
pIC50: −log10 of the molar value.
result type: pIC50

CN1CCN(Cc2ccc(-c3nc4ccccc4o3)cc2)CC1 :: < 4.00
c1ccc2oc(-c3ccc(CN4CCOCC4)cc3)nc2c1 :: < 4.00
c1ccc(CC2CCN(Cc3ccc(-c4nc5ccccc5o4)cc3)CC2)cc1 :: < 4.00
c1ccc(CN2CCN(Cc3ccc(-c4nc5ccccc5o4)cc3)CC2)cc1 :: < 4.00
CN(Cc1ccccc1)Cc1ccc(-c2nc3ccccc3o2)cc1 :: < 4.00
c1ccc(N2CCN(Cc3ccc(-c4nc5ccccc5o4)cc3)CC2)cc1 :: < 4.00
c1ccc(CNCc2ccc(-c3nc4ccccc4o3)cc2)cc1 :: < 4.00
c1ccc2oc(-c3ccc(CN4CCSCC4)cc3)nc2c1 :: 4.77
c1ccc2oc(-c3ccc(CN4CCCCC4)cc3)nc2c1 :: 5.18
c1ccc2oc(-c3ccc(CN4CCNCC4)cc3)nc2c1 :: 4.67
CCN1CCN(Cc2ccc(-c3nc4ccccc4o3)cc2)CC1 :: < 4.00
CCN(Cc1ccccc1)Cc1ccc(-c2nc3ccccc3o2)cc1 :: < 4.00
c1ccc(CN2CCC(NCc3ccc(-c4nc5ccccc5o4)cc3)CC2)cc1 :: 4.30
c1ccc2oc(-c3ccc(CN4CCCC4)cc3)nc2c1 :: 5.09
